Items are presented alongside their recorded viability, T/C.
- Tested on: T-47D spheroids with HUVEC/MSC, viability
- experimentNotes: Anticancer human tumor T-47D cell line growth inhibition [PI3K];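 further: spheroids exposed to agents for seven days before reading; percent of DMSO vehicle control luminescence so 100% = untreated growth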
- runParameters: second compound 0.0316 µM; first compound 10 µM; active compounds read low
Give just the number in %; leave the unit off.

// below: answered molecules
Cn1ncc(Cl)c1-c1cc(C(=O)NC(CN)Cc2cccc(F)c2)sc1Cl (stereo not given) + CC(Nc1ncnc2nc[nH]c12)c1cc2cccc(Cl)c2c(=O)n1-c1ccccc1: 66.6
Cn1ncc(Cl)c1-c1cc(C(=O)NC(CN)Cc2cccc(F)c2)sc1Cl (stereo not given) + Cc1nc(NC(=O)N2CCCC2C(N)=O)sc1-c1ccnc(C(C)(C)C(F)(F)F)c1: 63.3
CC1(C)CCC(Nc2ncc(C(F)(F)F)c(-c3c[nH]c4c(P(C)(C)=O)c(C#N)ccc34)n2)CN1 (stereo not given) + CC(Nc1ncnc2nc[nH]c12)c1cc2cccc(Cl)c2c(=O)n1-c1ccccc1: 48.4
CCCS(=O)(=O)Nc1ccc(F)c(C(=O)c2c[nH]c3ncc(-c4ccc(Cl)cc4)cc23)c1F + CC(Nc1ccc2c(c1)OCCn1cc(N3C(=O)OCC3C(F)F)nc1-2)C(N)=O: 43
C=CC(=O)N1CCN(c2nc(=O)n(-c3c(C)ccnc3C(C)C)c3nc(-c4c(O)cccc4F)c(F)cc23)C(C)C1 (stereo not given) + COc1c(OCCCN2CCOCC2)ccc2c3n(c(=NC(=O)c4cnc(N)nc4)nc12)CCN3: 90.6
CC1(C)CCC(CN2CCN(c3ccc(C(=O)NS(=O)(=O)c4ccc(NCC5CCOCC5)c([N+](=O)[O-])c4)c(Oc4cnc5[nH]ccc5c4)c3)CC2)=C(c2ccc(Cl)cc2)C1 + COc1c(OCCCN2CCOCC2)ccc2c3n(c(=NC(=O)c4cnc(N)nc4)nc12)CCN3: 75.1
CCCS(=O)(=O)Nc1ccc(F)c(C(=O)c2c[nH]c3ncc(-c4ccc(Cl)cc4)cc23)c1F + Cc1nc(NC(=O)N2CCCC2C(N)=O)sc1-c1ccnc(C(C)(C)C(F)(F)F)c1: 46.1
C#Cc1c(F)ccc2cc(O)cc(-c3ncc4c(N5CC6CCC(C5)N6)nc(OCC56CCCN5CC(F)C6)nc4c3F)c12 (stereo not given) + COc1c(OCCCN2CCOCC2)ccc2c3n(c(=NC(=O)c4cnc(N)nc4)nc12)CCN3: 87.5
CC(Cn1ccc(-c2ccc(C#N)c(Cl)c2)n1)NC(=O)c1cc(C(C)O)[nH]n1 (stereo not given) + CC(Nc1ccc2c(c1)OCCn1cc(N3C(=O)OCC3C(F)F)nc1-2)C(N)=O: 62.7
C#Cc1c(F)ccc2cc(O)cc(-c3ncc4c(N5CC6CCC(C5)N6)nc(OCC56CCCN5CC(F)C6)nc4c3F)c12 (stereo not given) + CC(Nc1ncnc2nc[nH]c12)c1cc2cccc(Cl)c2c(=O)n1-c1ccccc1: 104

-- ask Using the record for C[C@@H](NC(=O)c1ncnc(N)c1Cl)c1ncc(C(=O)Nc2cc(C(F)(F)F)c(Cl)cn2)s1 + CC(Nc1ncnc2nc[nH]c12)c1cc2cccc(Cl)c2c(=O)n1-c1ccccc1 , state its measured viability, T/C.
-- reply 92.5

-- ask Using the record for CC1(C)CCC(CN2CCN(c3ccc(C(=O)NS(=O)(=O)c4ccc(NCC5CCOCC5)c([N+](=O)[O-])c4)c(Oc4cnc5[nH]ccc5c4)c3)CC2)=C(c2ccc(Cl)cc2)C1 + Cc1nc(NC(=O)N2CCCC2C(N)=O)sc1-c1ccnc(C(C)(C)C(F)(F)F)c1 , state its measured viability, T/C.
-- reply 87.8

-- ask Using the record for C=CC(=O)N1CCN(c2nc(=O)n(-c3c(C)ccnc3C(C)C)c3nc(-c4c(O)cccc4F)c(F)cc23)C(C)C1 (stereo not given) + Cc1nc(NC(=O)N2CCCC2C(N)=O)sc1-c1ccnc(C(C)(C)C(F)(F)F)c1 , state its measured viability, T/C.
-- reply 98.5

-- ask Using the record for CC(Cn1ccc(-c2ccc(C#N)c(Cl)c2)n1)NC(=O)c1cc(C(C)O)[nH]n1 (stereo not given) + Cc1nc(NC(=O)N2CCCC2C(N)=O)sc1-c1ccnc(C(C)(C)C(F)(F)F)c1 , state its measured viability, T/C.
-- reply 63.6

-- ask Using the record for C[C@@H](NC(=O)c1ncnc(N)c1Cl)c1ncc(C(=O)Nc2cc(C(F)(F)F)c(Cl)cn2)s1 + Cc1nc(NC(=O)N2CCCC2C(N)=O)sc1-c1ccnc(C(C)(C)C(F)(F)F)c1 , state its measured viability, T/C.
-- reply 102
